Please provide measured melting point for the entries that follow.

Recorded result, Cl.Cl.c1cc(C2=NCCN2)ccc1NCc1cn(-c2ccc(C3=NCCN3)cc2)nn1 [Compound 4] , melting point: > 250 °C

Recorded result, N/C(=N\O)c1ccc(-n2cc(Cn3ccc4c(/C(N)=N/O)cccc43)nn2)cc1 [Compound 15] , melting point: 229 to 232 °C

Recorded result, N/C(=N\O)c1ccc(-n2cc(COc3cccc4ccc(/C(N)=N/O)nc34)nn2)cc1 [Compound 20] , melting point: 238 to 241 °C

Recorded result, N/C(=N\O)c1ccc(-n2cc(Cn3ccc4cc(/C(N)=N/O)ccc43)nn2)cc1 [Compound 17] , melting point: 232 to 234 °C

Recorded result, Cl.Cl.c1cc(C2=NCCN2)ccc1OCc1cn(-c2ccc(C3=NCCN3)cc2)nn1 [Compound 5] , melting point: > 250 °C

Recorded result, Cl.c1cnc2c(NCc3cn(-c4ccc(C5=NCCN5)cc4)nn3)cccc2c1 [Compound 8] , melting point: 192 to 196 °C

Recorded result, N/C(=N\O)c1ccc(-n2cc(COc3cc(=O)oc4ccccc34)nn2)cc1 [Compound 21] , melting point: 235 to 237 °C

----------
System: SW620 (colorectal adenocarcinoma, metastatic)
Experiment: MTT proliferation assay, 72 h
Format: cell-based, human
Conditions: Homo sapiens, SW-620; SW620 cells, MTT, 72 h
Please provide measured IC50 for the entries that follow.
Please give a number only; it is taken to be in µM.

Recorded result, N/C(=N\O)c1ccc(-n2cc(COc3cccc4cccnc34)nn2)cc1 [Compound 19] , IC50: 72.7

Recorded result, Cl.O=c1ccc2ccc(OCc3cn(-c4ccc(C5=NCCN5)cc4)nn3)cc2o1 [Compound 11] , IC50: 4.77

Recorded result, Cl.c1cnc2c(OCc3cn(-c4ccc(C5=NCCN5)cc4)nn3)cccc2c1 [Compound 9] , IC50: 2.69

Recorded result, O=c1[nH]cc(F)c(=O)[nH]1 [Compound 5-FU, 5-Fluorouracil, reference compound] , IC50: 0.08

----------
Counter-ions that a name gives are not always drawn.
reported.metric: melting point

Recorded result, Cl.O=c1ccc2ccc(OCc3cn(-c4ccc(C5=NCCN5)cc4)nn3)cc2o1 [Compound 11] , melting point: > 250 °C

Recorded result, N/C(=N\O)c1ccc(-n2cc(COc3ccc4ccc(=O)oc4c3)nn2)cc1 [Compound 22] , melting point: 232 to 235 °C

Recorded result, N/C(=N\O)c1ccc(-n2cc(COc3cccc4cccnc34)nn2)cc1 [Compound 19] , melting point: 230 to 232 °C

Recorded result, Cl.c1cnc2c(OCc3cn(-c4ccc(C5=NCCN5)cc4)nn3)cccc2c1 [Compound 9] , melting point: 229 to 232 °C

Recorded result, N/C(=N\O)c1ccc(OCc2cn(-c3ccc(/C(N)=N/O)cc3)nn2)cc1 [Compound 13] , melting point: 218 to 221 °C

Recorded result, c1cc(-n2cc(Cn3ccc4cc(C5=NCCN5)ccc43)nn2)ccc1C1=NCCN1 (as salt: hydrochloride) [Compound 7] , melting point: 228 to 231 °C

Recorded result, N#Cc1ccc(NCc2cn(-c3ccc(/C(N)=N/O)cc3)nn2)cc1 [Compound 12] , melting point: 222 to 225 °C

Recorded result, c1cc(C2=NCCN2)c2ccn(Cc3cn(-c4ccc(C5=NCCN5)cc4)nn3)c2c1 (as salt: hydrochloride) [Compound 6] , melting point: > 250 °C

----------
Tested on: poly (dAdT)2 (DNA, polymer) AT
Experiment: fluorescence titration, Scatchard
Conditions: Na+ (sodium cacodylate, I = 0.05 M); sodium cacodylate buffer pH 7.0, 25 °C; polynucleotide concentration as phosphates; per base
logKs of 6 or higher: YES. Under 6: NO.

**Q:** Is logKs for `c1cc(C2=NCCN2)c2ccn(Cc3cn(-c4ccc(C5=NCCN5)cc4)nn3)c2c1` at or above 6?
**A:** YES

**Q:** Is logKs for Cl.O=c1ccc2ccc(OCc3cn(-c4ccc(C5=NCCN5)cc4)nn3)cc2o1 [Compound 11] at or above 6?
**A:** NO

**Q:** Is logKs for Cl.c1cnc2c(NCc3cn(-c4ccc(C5=NCCN5)cc4)nn3)cccc2c1 [Compound 8] at or above 6?
**A:** NO

**Q:** Is logKs for Cl.c1cnc2c(OCc3cn(-c4ccc(C5=NCCN5)cc4)nn3)cccc2c1 [Compound 9] at or above 6?
**A:** NO

**Q:** Is logKs for Cl.O=c1cc(OCc2cn(-c3ccc(C4=NCCN4)cc3)nn2)c2ccccc2o1 [Compound 10] at or above 6?
**A:** YES

**Q:** Is logKs for Cl.Cl.c1cc(C2=NCCN2)ccc1OCc1cn(-c2ccc(C3=NCCN3)cc2)nn1 [Compound 5] at or above 6?
**A:** YES

----------
Test system: SW620 (colorectal adenocarcinoma, metastatic)
Assay: MTT proliferation assay, 72 h
Format: cell-based, human
Conditions: Homo sapiens, SW-620; SW620 cells, MTT, 72 h
pIC50: −log10 of the molar value.
reported.metric: pIC50

Recorded result, `N#Cc1ccc2c(ccn2Cc2cn(-c3ccc(/C(N)=N/O)cc3)nn2)c1` , pIC50: < 4.00

Recorded result, `N/C(=N\O)c1ccc(-n2cc(Cn3ccc4c(/C(N)=N/O)cccc43)nn2)cc1` , pIC50: < 4.00

Recorded result, `N#Cc1cccc2c1ccn2Cc1cn(-c2ccc(/C(N)=N/O)cc2)nn1` , pIC50: < 4.00
